Test: MTT assay, HEL299 fibroblast
Type: cell-based
Conditions: human
Description: Please refer to FIG. 4C, various cell viabilities of the HEL299 cell lines can be obtained through the MTT assay while the compounds No. 1˜30 are used to treat HEL299 cell lines, wherein HEL299 cell lines are fibroblast.
Threshold-based label: viability under 90% gives true (1), viability not under 90% gives false (0).

Illustrative cases are given below, each with its answer.
>>> assigned_category("CC(C)c1ccccc1Sc1ccc2c(=O)c3ccccc3sc2c1Cl")
"false (0)"
>>> assigned_category("O=c1c2ccccc2sc2c(Cl)c(SCc3ccc(Br)cc3)ccc12")
"true (1)"

Pending molecule:
Hello, I'm reviewing records and need to know if viability of O=c1c2ccccc2sc2c(Cl)c(Sc3ccccc3)ccc12 is below 90%. Could you check?
false (0)

====

Below, each of the compounds is paired with its reported Growth Percent value.
System: K562
Experiment: NCI in vitro DTP human cell line screen, K562
Assay type: cell-based
Conditions: Leukemia, 1.00E−5 Molar
Method: Then, a cell toxicity assay of the cancer lines made by National Cancer Institute will be discussed as follows. The cell toxicity assay is performed by choosing ten compounds (existing certification numbers) from the 59 compounds disclosed in the present invention first.
Report the figure in % without appending any unit label.

For orientation, consider the following solved cases.
>>> reported("O=c1c2ccccc2sc2c(Cl)c(SCc3ccc(F)cc3)ccc12 [No. 24]")
90.35
>>> reported("O=c1c2ccccc2sc2c(Cl)c(Sc3ccc(Cl)cc3)ccc12 [No. 29]")
96.64
>>> reported("O=c1c2ccccc2sc2c(Cl)c(SCc3ccc(Cl)cc3)ccc12 [No. 26]")
113.64

GET /values?readout=Growth Percent&item= COc1cccc(Sc2ccc3c(=O)c4ccccc4sc3c2Cl)c1 [No. 16]
97.79

GET /values?readout=Growth Percent&item= O=c1c2ccccc2sc2c(Cl)c(Sc3ccccc3)ccc12 [No. 6]
101.65

GET /values?readout=Growth Percent&item= Cc1cccc(C)c1Sc1ccc2c(=O)c3ccccc3sc2c1Cl [No. 12]
97.86

====

Test system: A3 cell lines
Test: MTT assay, A3 cell lines (lung cancer stem cell)
Format: cell-based
Below, each of the compounds is paired with its reported cell viabilities of A3 cell lines (MTT assay) value.
Report the figure in % without appending any unit label.

>>> reported("COc1ccc(Sc2ccc3c(=O)c4ccccc4sc3c2Cl)cc1")
89.4
>>> reported("O=c1c2ccccc2sc2c(Cl)c(SCc3ccc(Cl)cc3)ccc12")
62.4
>>> reported("CC(C)c1ccccc1Sc1ccc2c(=O)c3ccccc3sc2c1Cl")
93.7
>>> reported("COc1ccccc1Sc1ccc2c(=O)c3ccccc3sc2c1Cl")
99.0
>>> reported("Cc1ccc(Sc2ccc3c(=O)c4ccccc4sc3c2Cl)cc1")
115

GET /values?readout=cell viabilities of A3 cell lines (MTT assay)&item= O=c1c2ccccc2sc2c(Cl)c(SCc3ccc(F)cc3)ccc12
47.8

GET /values?readout=cell viabilities of A3 cell lines (MTT assay)&item= Cc1cc(C)cc(Sc2ccc3c(=O)c4ccccc4sc3c2Cl)c1
113

GET /values?readout=cell viabilities of A3 cell lines (MTT assay)&item= O=c1c2ccccc2sc2c(Cl)c(Sc3ccccc3)ccc12
103

====

System: A control cell lines
Assay: MTT assay, A control cell lines (lung cancer cell)
Type: cell-based
Measurement type: cell viabilities of A control cell lines (MTT assay) (%)
Report the figure in % without appending any unit label.

For orientation, consider the following solved cases.
>>> reported("Cc1cccc(C)c1Sc1ccc2c(=O)c3ccccc3sc2c1Cl [No. 12]")
103
>>> reported("CCc1ccccc1Sc1ccc2c(=O)c3ccccc3sc2c1Cl [No. 18]")
73.2
>>> reported("Cc1cc(C)cc(Sc2ccc3c(=O)c4ccccc4sc3c2Cl)c1 [No. 14]")
112
>>> reported("CC(C)c1ccc(Sc2ccc3c(=O)c4ccccc4sc3c2Cl)cc1 [No. 20]")
74.6

GET /values?readout=cell viabilities of A control cell lines (MTT assay)&item= O=c1c2ccccc2sc2c(Cl)c(SCc3ccc(F)cc3)ccc12 [No. 24]
35.5

====

Test system: MDA-MB-468
Assay: NCI in vitro DTP human cell line screen, MDA-MB-468
Assay type: cell-based
Conditions: Breast Cancer, 1.00E−5 Molar
Measurement type: Growth Percent (%)
Report the figure in % without appending any unit label.

For orientation, consider the following solved cases.
>>> reported("O=c1c2ccccc2sc2c(Cl)c(SCc3ccc(F)cc3)ccc12")
92.16
>>> reported("COc1ccc(CSc2ccc3c(=O)c4ccccc4sc3c2Cl)cc1")
102.80
>>> reported("Cc1cccc(C)c1Sc1ccc2c(=O)c3ccccc3sc2c1Cl")
113.20
>>> reported("O=c1c2ccccc2sc2c(Cl)c(Sc3ccccc3)ccc12")
82.54
>>> reported("O=c1c2ccccc2sc2c(Cl)c(SCc3ccc(Cl)cc3)ccc12")
96.96

GET /values?readout=Growth Percent&item= CCCSc1ccc2c(=O)c3ccccc3sc2c1Cl
91.53

====

Below, each of the compounds is paired with its reported Growth Percent value.
Test system: SK-MEL-5
Experiment: NCI in vitro DTP human cell line screen, SK-MEL-5
Type: cell-based
Conditions: Melanoma, 1.00E−5 Molar
Method: Then, a cell toxicity assay of the cancer lines made by National Cancer Institute will be discussed as follows. The cell toxicity assay is performed by choosing ten compounds (existing certification numbers) from the 59 compounds disclosed in the present invention first.
Report the figure in % without appending any unit label.

>>> reported("COc1cccc(Sc2ccc3c(=O)c4ccccc4sc3c2Cl)c1 [No. 16]")
96.73

Give Growth Percent (SK-MEL-5) of the following compound: O=c1c2ccccc2sc2c(Cl)c(SCc3ccccc3)ccc12 [No. 23]
99.73

Give Growth Percent (SK-MEL-5) of the following compound: O=c1c2ccccc2sc2c(Cl)c(SCc3ccc(F)cc3)ccc12 [No. 24]
95.97

====

Below, each of the compounds is paired with its reported cell viabilities of A control cell lines (MTT assay) value.
System: A control cell lines
Assay: MTT assay, A control cell lines (lung cancer cell)
Type: cell-based
Report the figure in % without appending any unit label.

GET /values?readout=cell viabilities of A control cell lines (MTT assay)&item= COc1ccccc1Sc1ccc2c(=O)c3ccccc3sc2c1Cl
85.4

GET /values?readout=cell viabilities of A control cell lines (MTT assay)&item= Cc1ccc(C)c(Sc2ccc3c(=O)c4ccccc4sc3c2Cl)c1
105

GET /values?readout=cell viabilities of A control cell lines (MTT assay)&item= CC(C)Sc1ccc2c(=O)c3ccccc3sc2c1Cl
91.1

GET /values?readout=cell viabilities of A control cell lines (MTT assay)&item= Cc1ccccc1Sc1ccc2c(=O)c3ccccc3sc2c1Cl
103

GET /values?readout=cell viabilities of A control cell lines (MTT assay)&item= Cc1ccc(Sc2ccc3c(=O)c4ccccc4sc3c2Cl)cc1C
113

GET /values?readout=cell viabilities of A control cell lines (MTT assay)&item= Cc1ccc(Sc2ccc3c(=O)c4ccccc4sc3c2Cl)c(C)c1
104

GET /values?readout=cell viabilities of A control cell lines (MTT assay)&item= COc1ccc(Sc2ccc3c(=O)c4ccccc4sc3c2Cl)cc1
97.1

GET /values?readout=cell viabilities of A control cell lines (MTT assay)&item= Cc1ccc(Sc2ccc3c(=O)c4ccccc4sc3c2Cl)cc1
119

====

Tested on: CCRF-CEM
Assay: NCI in vitro DTP human cell line screen, CCRF-CEM
Assay type: cell-based
Conditions: Leukemia, 1.00E−5 Molar
Label y for high-side Growth Percent (at or above 90%) and n for low-side Growth Percent (below it).

>>> assigned_category("O=c1c2ccccc2sc2c(Cl)c(SCc3ccccc3)ccc12")
"n"

Identify whether the reported Growth Percent of the following molecule is 90% or greater: CCCSc1ccc2c(=O)c3ccccc3sc2c1Cl
n

Identify whether the reported Growth Percent of the following molecule is 90% or greater: O=c1c2ccccc2sc2c(Cl)c(Sc3ccc(Cl)cc3)ccc12
n

Identify whether the reported Growth Percent of the following molecule is 90% or greater: O=c1c2ccccc2sc2c(Cl)c(Sc3ccccc3)ccc12
y

Identify whether the reported Growth Percent of the following molecule is 90% or greater: O=c1c2ccccc2sc2c(Cl)c(SCc3ccc(F)cc3)ccc12
n

====

Test system: UO-31
Assay: NCI in vitro DTP human cell line screen, UO-31
Assay type: cell-based
Conditions: Renal Cancer, 1.00E−5 Molar
Measurement type: Growth Percent
In your response, the unit should come after the numeric value.

>>> reported("Cc1cc(C)cc(Sc2ccc3c(=O)c4ccccc4sc3c2Cl)c1 [No. 14]")
"87.22%"
>>> reported("O=c1c2ccccc2sc2c(Cl)c(SCc3ccc(F)cc3)ccc12 [No. 24]")
"95.13%"
>>> reported("Cc1cccc(C)c1Sc1ccc2c(=O)c3ccccc3sc2c1Cl [No. 12]")
"87.03%"
>>> reported("O=c1c2ccccc2sc2c(Cl)c(SCc3ccccc3)ccc12 [No. 23]")
"66.76%"

GET /values?readout=Growth Percent&item= CCCSc1ccc2c(=O)c3ccccc3sc2c1Cl [No. 3]
99.45%

GET /values?readout=Growth Percent&item= COc1ccc(CSc2ccc3c(=O)c4ccccc4sc3c2Cl)cc1 [No. 27]
102.53%

GET /values?readout=Growth Percent&item= O=c1c2ccccc2sc2c(Cl)c(Sc3ccc(Cl)cc3)ccc12 [No. 29]
69.61%
